tested on: NCI-H2087; assay: relative viability (nuclei count vs DMSO), 5 days (fraction); higher = more cells survive; settings: first compound 2.53 µM
QUANTITY_KIND: relative viability
Form: value (number only, do not type unit).

MOLECULE	QUANTITATIVE_READOUT
CCCCCCCCCCCC1=C(O)C(=O)C=C(O)C1=O [Embelin] + COc1cc2c(Oc3ccc(NC(=O)C4(C(=O)Nc5ccc(F)cc5)CC4)cc3F)ccnc2cc1OCCCN1CCOCC1 [Foretinib] (partner 0.25 µM)	1.03
CCCCCCCCCCCC1=C(O)C(=O)C=C(O)C1=O [Embelin] + CS(=O)(=O)CCNCc1ccc(-c2ccc3ncnc(Nc4ccc(OCc5cccc(F)c5)c(Cl)c4)c3c2)o1 [Lapatinib] (partner 2 µM)	1.2
CCCCCCCCCCCC1=C(O)C(=O)C=C(O)C1=O [Embelin] + CC(=O)Nc1cccc(-n2c(=O)n(C3CC3)c(=O)c3c(Nc4ccc(I)cc4F)n(C)c(=O)c(C)c32)c1 [Trametinib] (partner 0.02 µM)	0.233
CCCCCCCCCCCC1=C(O)C(=O)C=C(O)C1=O [Embelin] + C[C@@H](Oc1cc(-c2cnn(C3CCNCC3)c2)cnc1N)c1c(Cl)ccc(F)c1Cl [Crizotinib] (partner 1 µM)	0.766
CCCCCCCCCCCC1=C(O)C(=O)C=C(O)C1=O [Embelin] + CS(=O)(=O)N1CCN(Cc2cc3nc(-c4cccc5[nH]ncc45)nc(N4CCOCC4)c3s2)CC1 [Pictilisib] (partner 1 µM)	1.24

Query :: # lookup: relative viability of CCCCCCCCCCCC1=C(O)C(=O)C=C(O)C1=O [Embelin] + CC(=O)c1c(C)c2cnc(Nc3ccc(N4CCNCC4)cn3)nc2n(C2CCCC2)c1=O [Palbociclib] (partner 0.5 µM)
Result :: 0.266

----------
test system: BEN; assay: relative viability (nuclei count vs DMSO), 5 days (fraction); higher = more cells survive; conditions: first compound 1.265 µM
QUANTITY_KIND: relative viability
Form: value (number only, do not type unit).

COMPOUND	relative viability
Clc1ccc(Nc2nnc(Cc3ccncc3)c3ccccc23)cc1 [Vatalanib] + COc1cccc2cc(-c3nc([C@H]4CC[C@H](C(=O)O)CC4)n4ncnc(N)c34)[nH]c12 [OSI-027] (partner 0.5 µM)	0.295

Please look at the following compound next.
Query :: # lookup: relative viability of COc1cc(N2CCC(C(N)=O)CC2)ccc1Nc1nc(N)c(Cl)c(Nc2ccccc2S(=O)(=O)C(C)C)n1 [HG-5-88-01] + Cc1nc(NC(=O)N2CCC[C@H]2C(N)=O)sc1-c1ccnc(C(C)(C)C(F)(F)F)c1 [Alpelisib] (partner 2 µM)
Result :: 0.853

----------
system: NCI-H1734; assay: relative viability (nuclei count vs DMSO), 5 days (fraction); higher = more cells survive; settings: first compound 8 µM
relative viability: recorded values
Form: value (number only, do not type unit).

Before answering, review these 5 worked examples.
MOLECULE	relative viability
CCCCCCCCCCCC1=C(O)C(=O)C=C(O)C1=O [Embelin] + COc1cc2c(Oc3ccc(NC(=O)C4(C(=O)Nc5ccc(F)cc5)CC4)cc3F)ccnc2cc1OCCCN1CCOCC1 [Foretinib] (partner 0.25 µM)	0.924
CCCCCCCCCCCC1=C(O)C(=O)C=C(O)C1=O [Embelin] + Nc1ncn([C@H]2C[C@H](O)[C@@H](CO)O2)c(=O)n1 [Decitabine] (partner 2 µM)	0.516
CCCCCCCCCCCC1=C(O)C(=O)C=C(O)C1=O [Embelin] + NC(=O)Nc1cc(-c2cccc(F)c2)sc1C(=O)N[C@H]1CCCNC1 [AZD7762] (partner 0.2 µM)	0.622
CCCCCCCCCCCC1=C(O)C(=O)C=C(O)C1=O [Embelin] + COc1cccc2cc(-c3nc([C@H]4CC[C@H](C(=O)O)CC4)n4ncnc(N)c34)[nH]c12 [OSI-027] (partner 0.5 µM)	0.608
CCCCCCCCCCCC1=C(O)C(=O)C=C(O)C1=O [Embelin] + CCNC(=O)c1noc(-c2cc(C(C)C)c(O)cc2O)c1-c1ccc(CN2CCOCC2)cc1 [Luminespib] (partner 0.01 µM)	0.197

Query :: # lookup: relative viability of CCCCCCCCCCCC1=C(O)C(=O)C=C(O)C1=O [Embelin] + CC(C)C[C@H](NC(=O)[C@H](Cc1ccccc1)NC(=O)c1cnccn1)B(O)O [Bortezomib] (partner 0.002 µM)
Result :: 0.944

Query :: Moving on to CCCCCCCCCCCC1=C(O)C(=O)C=C(O)C1=O [Embelin] + Cc1nc(NC(=O)N2CCC[C@H]2C(N)=O)sc1-c1ccnc(C(C)(C)C(F)(F)F)c1 [Alpelisib] (partner 2 µM)
Result :: 0.741
